Data origin: ChEMBL document CHEMBL1123569

# targetOfAssay: Renin (Homo sapiens, UniProt P00797)
# Sequence (P00797 whole entry): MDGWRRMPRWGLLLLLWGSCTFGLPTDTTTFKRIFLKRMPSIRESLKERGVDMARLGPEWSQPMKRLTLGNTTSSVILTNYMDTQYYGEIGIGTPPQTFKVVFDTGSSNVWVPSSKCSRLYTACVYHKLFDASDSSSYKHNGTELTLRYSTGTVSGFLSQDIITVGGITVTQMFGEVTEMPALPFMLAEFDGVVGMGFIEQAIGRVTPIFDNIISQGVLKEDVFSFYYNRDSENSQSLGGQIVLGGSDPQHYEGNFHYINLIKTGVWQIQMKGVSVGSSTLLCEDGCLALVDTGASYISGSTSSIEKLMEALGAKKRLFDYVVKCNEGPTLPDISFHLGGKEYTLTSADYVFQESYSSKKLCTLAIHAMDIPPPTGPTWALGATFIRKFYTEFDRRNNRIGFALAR
# protocolSummary: Inhibition of human plasma renin
Where a SMILES comes first, the peptide text is derived from it. [ ]: non-standard residue; d: D form. The star is where a group is joined. ξ: configuration not given here. Sta = CC(C)C[C@H](N)[C@@H](O)CC(=O)O; ξPhg = NC(C(=O)O)c1ccccc1; Boc = CC(C)(C)OC(=O)*
Below, each of the molecules is paired with its reported IC50 value.
Note: unit nM is implicit; provide only the numeric part.

Ask: Looking for the measured IC50 of COC(=O)C[C@H](O)[C@H](CC(C)C)NC(=O)[C@H](C)NC(=O)C[C@H](O)[C@H](CC(C)C)NC(=O)[C@H](Cc1c[nH]c2ccccc12)NC(=O)[C@H](Cc1ccccc1)NC(=O)OC(C)(C)C (Boc-FW[Sta]A[Sta]-OMe) , can you help?
Result: 120

Ask: # query: IC50 of entry COC(=O)C[C@H](O)[C@H](CC(C)C)NC(=O)[C@H](C)NC(=O)C[C@H](O)[C@H](CC(C)C)NC(=O)[C@H](CO)NC(=O)[C@H](Cc1ccccc1)NC(=O)OC(C)(C)C (Boc-FS[Sta]A[Sta]-OMe)
Result: 437

Ask: Consider the molecule COC(=O)C[C@H](O)[C@H](CC(C)C)NC(=O)[C@H](C)NC(=O)C[C@H](O)[C@H](CC(C)C)NC(=O)[C@H](CCSC)NC(=O)[C@H](Cc1ccccc1)NC(=O)OC(C)(C)C (Boc-FM[Sta]A[Sta]-OMe) and give its measured IC50.
Result: 316

Ask: Requested field: IC50. Item: COC(=O)C[C@H](O)[C@H](CC(C)C)NC(=O)[C@H](C)NC(=O)C[C@H](O)[C@H](CC(C)C)NC(=O)C(NC(=O)[C@H](Cc1ccccc1)NC(=O)OC(C)(C)C)c1ccccc1 (some centres undefined) (Boc-F[ξPhg][Sta]A[Sta]-OMe)
Result: 93.3
